# tested_system: Epidermal growth factor receptor (Homo sapiens, UniProt P00533)
# Sequence (P00533 whole entry): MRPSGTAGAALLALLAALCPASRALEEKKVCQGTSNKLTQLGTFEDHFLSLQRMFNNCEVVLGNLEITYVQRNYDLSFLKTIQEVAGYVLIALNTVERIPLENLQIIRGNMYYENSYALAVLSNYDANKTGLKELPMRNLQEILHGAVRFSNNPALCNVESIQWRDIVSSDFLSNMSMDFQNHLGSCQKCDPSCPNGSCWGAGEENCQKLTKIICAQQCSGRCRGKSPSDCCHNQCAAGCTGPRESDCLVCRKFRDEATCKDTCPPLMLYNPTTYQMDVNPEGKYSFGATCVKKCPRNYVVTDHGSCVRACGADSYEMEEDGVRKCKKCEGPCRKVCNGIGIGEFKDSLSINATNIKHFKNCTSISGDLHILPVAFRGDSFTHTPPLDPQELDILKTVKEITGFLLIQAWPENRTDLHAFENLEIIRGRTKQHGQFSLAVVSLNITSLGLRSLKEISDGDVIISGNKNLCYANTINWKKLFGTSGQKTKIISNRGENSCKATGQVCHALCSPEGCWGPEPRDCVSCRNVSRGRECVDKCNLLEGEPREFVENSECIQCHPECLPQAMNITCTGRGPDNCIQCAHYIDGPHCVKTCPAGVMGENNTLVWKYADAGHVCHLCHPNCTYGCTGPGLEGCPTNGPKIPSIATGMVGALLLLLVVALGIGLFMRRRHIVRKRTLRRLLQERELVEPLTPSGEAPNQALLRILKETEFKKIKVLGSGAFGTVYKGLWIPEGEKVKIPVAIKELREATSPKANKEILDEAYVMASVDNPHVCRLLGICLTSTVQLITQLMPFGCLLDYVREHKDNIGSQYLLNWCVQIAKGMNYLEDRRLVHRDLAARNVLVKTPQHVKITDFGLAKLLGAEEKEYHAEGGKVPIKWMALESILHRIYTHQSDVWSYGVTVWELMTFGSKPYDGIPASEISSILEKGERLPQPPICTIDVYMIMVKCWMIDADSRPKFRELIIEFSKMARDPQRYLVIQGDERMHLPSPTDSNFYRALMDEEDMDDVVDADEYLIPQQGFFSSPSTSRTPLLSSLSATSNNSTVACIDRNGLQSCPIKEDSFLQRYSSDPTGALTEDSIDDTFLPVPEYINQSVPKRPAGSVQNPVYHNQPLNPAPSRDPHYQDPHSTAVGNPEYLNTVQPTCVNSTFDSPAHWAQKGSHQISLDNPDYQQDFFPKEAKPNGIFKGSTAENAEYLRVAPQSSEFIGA
pIC50: −log10 of the molar value.
property_measured: pIC50

structure_notation	result_value
Fc1cccc(COc2ccc(Nc3ncnc4cc(C#C[C@H]5CCCN5)sc34)cc2Cl)c1	8.15
Nc1cnc(C#Cc2cc3ncnc(Nc4ccc(OCc5cccc(F)c5)c(Cl)c4)c3s2)cn1	7.33
C#Cc1cc2ncnc(Nc3ccc(OCc4cccc(F)c4)c(Cl)c3)c2s1	7.62

* * *

What follows is a record of pIC50 for Receptor tyrosine-protein kinase erbB-2 (Homo sapiens, UniProt P04626).
pIC50: −log10 of the molar value.

structure_notation	pIC50
Nc1cnc(C#Cc2cc3c(Nc4ccc(OCc5cccc(F)c5)c(Cl)c4)ncnc3s2)cn1	7.28
C#Cc1cc2c(Nc3ccc(OCc4cccc(F)c4)c(Cl)c3)ncnc2s1	7.72

* * *

Measurement record for Receptor tyrosine-protein kinase erbB-4 (Homo sapiens); quantity recorded: IC50.

structure_notation	IC50 [nM]
C[C@H](N)C#Cc1cc2ncnc(Nc3ccc(OCc4cccc(F)c4)c(Cl)c3)c2s1	412
Nc1cnc(C#Cc2cc3c(Nc4ccc(OCc5cccc(F)c5)c(Cl)c4)ncnc3s2)cn1	1350
Nc1cnc(C#Cc2cc3ncnc(Nc4ccc(OCc5cccc(F)c5)c(Cl)c4)c3s2)cn1	254
Fc1cccc(COc2ccc(Nc3ncnc4cc(C#C[C@H]5CCCN5)sc34)cc2Cl)c1	66
